- Test system: S. aureus, B. subtilis, E. coli, C. albicans and A. niger
- ASSAY_COMMENT: Average antimicrobial activity
- Type: cell-based
- CONDITION_DETAILS: mean of five pMIC values
Task for the reader: assign each of the following compounds its reported pMICam.
Lab note: record just the number, no unit beside it.

Exam item: Write down pMICam measured for item `O=C(c1ccccc1Cl)n1c(-c2ccc(S(=O)(=O)O)cc2)nc2ccccc21`
Marked response: 1.81

Exam item: Look up and report measured pMICam for this entry: `COc1ccc(C(=O)n2c(-c3ccc(S(=O)(=O)O)cc3)nc3ccccc32)cc1`
Marked response: 1.82

Exam item: Please give measured pMICam of the following entry: `O=C(c1ccc(O)cc1O)n1c(-c2ccc(S(=O)(=O)O)cc2)nc2ccccc21`
Marked response: 1.94

Exam item: Retrieve pMICam measured for `C/C=C/C(=O)n1c(-c2ccc(S(=O)(=O)O)cc2)nc2ccccc21` and print it.
Marked response: 1.57

---

- System: S. aureus, B. subtilis, E. coli, C. albicans and A. niger
- ASSAY_COMMENT: Average antimicrobial activity
- Type: cell-based
- CONDITION_DETAILS: mean of five pMIC values
Would you mind telling me the reported pMICam of each entry?
Reply with just the number.

Exam item: Recall the reported pMICam of O=C(c1ccc(Cl)cc1)n1c(-c2ccc(S(=O)(=O)O)cc2)nc2ccccc21 [Compound 5] when tested on S. aureus, B. subtilis, E. coli, C. albicans and A. niger.
Marked response: 1.88

Exam item: Provide measured pMICam on S. aureus, B. subtilis, E. coli, C. albicans and A. niger for O=C(c1ccccc1)n1c(-c2ccc(S(=O)(=O)O)cc2)nc2ccccc21 [Compound 2] please.
Marked response: 1.92

Exam item: Please report pMICam with S. aureus, B. subtilis, E. coli, C. albicans and A. niger for item O=C(c1ccc([N+](=O)[O-])cc1)n1c(-c2ccc(S(=O)(=O)O)cc2)nc2ccccc21 [Compound 9] .
Marked response: 2.19

Exam item: Using S. aureus, B. subtilis, E. coli, C. albicans and A. niger as the test system, report measured pMICam of Nc1ccccc1C(=O)n1c(-c2ccc(S(=O)(=O)O)cc2)nc2ccccc21 [Compound 1] .
Marked response: 1.89

Exam item: Enter pMICam (test system S. aureus, B. subtilis, E. coli, C. albicans and A. niger) for CCCCC(=O)n1c(-c2ccc(S(=O)(=O)O)cc2)nc2ccccc21 [Compound 17]
Marked response: 1.58

Exam item: # assay system S. aureus, B. subtilis, E. coli, C. albicans and A. niger: give pMICam of Cc1ccc(S(=O)(=O)n2c(-c3ccc(S(=O)(=O)O)cc3)nc3ccccc32)cc1 [Compound 20]
Marked response: 1.60

Exam item: State measured pMICam of the compound Cc1ccccc1C(=O)n1c(-c2ccc(S(=O)(=O)O)cc2)nc2ccccc21 [Compound 10] with S. aureus, B. subtilis, E. coli, C. albicans and A. niger.
Marked response: 1.80

Exam item: Give reported pMICam for O=C(c1ccccc1O)n1c(-c2ccc(S(=O)(=O)O)cc2)nc2ccccc21 [Compound 16] (S. aureus, B. subtilis, E. coli, C. albicans and A. niger)
Marked response: 1.89

---

- Test system: HEL cells
- ASSAY_COMMENT: Cytotoxicity in uninfected cell cultures
- Assay type: cell-based
- CONDITION_DETAILS: microscopically detectable alteration of cell morphology
Please provide measured Minimum cytotoxic concentration for the entries that follow.

Exam item: Report Minimum cytotoxic concentration for Cc1ccc(S(=O)(=O)n2c(-c3ccc(S(=O)(=O)O)cc3)nc3ccccc32)cc1 [Compound 20]
Marked response: >100 µg/mL

Exam item: Note down Minimum cytotoxic concentration recorded for CCCCCCCCCCCCCCCC(=O)n1c(-c2ccc(S(=O)(=O)O)cc2)nc2ccccc21 [Compound 19]
Marked response: >100 µg/mL

Exam item: Entry Cc1ccccc1C(=O)n1c(-c2ccc(S(=O)(=O)O)cc2)nc2ccccc21 [Compound 10] needs its Minimum cytotoxic concentration filled in; supply it.
Marked response: >100 µg/mL

Exam item: Entry C/C=C/C(=O)n1c(-c2ccc(S(=O)(=O)O)cc2)nc2ccccc21 [Compound 12] needs its Minimum cytotoxic concentration filled in; supply it.
Marked response: >100 µg/mL

Exam item: Tell us which Minimum cytotoxic concentration value is on record for CCCCCCCC/C=C/CCCCCCCC(=O)n1c(-c2ccc(S(=O)(=O)O)cc2)nc2ccccc21 [Compound 18]
Marked response: >100 µg/mL

Exam item: State, in one line, measured Minimum cytotoxic concentration of Nc1ccccc1C(=O)n1c(-c2ccc(S(=O)(=O)O)cc2)nc2ccccc21 [Compound 1]
Marked response: >100 µg/mL

Exam item: Given the molecule O=C(c1ccccc1)n1c(-c2ccc(S(=O)(=O)O)cc2)nc2ccccc21 [Compound 2] , write its reported Minimum cytotoxic concentration.
Marked response: >100 µg/mL

Exam item: For the molecule C=CC(=O)n1c(-c2ccc(S(=O)(=O)O)cc2)nc2ccccc21 [Compound 13] , give its measured Minimum cytotoxic concentration value.
Marked response: 100 µg/mL

Exam item: Tell me Minimum cytotoxic concentration reported for Nc1nc(O)c2ncn(COC(CO)CO)c2n1 [Ganciclovir]
Marked response: >100 µM

All figures here come from paper PMC7115694.
